The reported measurements were obtained from patent US20250177383A1.

Test system: IL-17A/F (Homo sapiens, UniProt Q16552+Q96PD4)
Sequence (Q16552 24-155): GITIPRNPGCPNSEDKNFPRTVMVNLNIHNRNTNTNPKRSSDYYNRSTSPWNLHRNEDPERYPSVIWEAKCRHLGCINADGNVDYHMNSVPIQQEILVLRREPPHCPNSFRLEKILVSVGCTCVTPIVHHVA
Sequence (Q96PD4 31-163): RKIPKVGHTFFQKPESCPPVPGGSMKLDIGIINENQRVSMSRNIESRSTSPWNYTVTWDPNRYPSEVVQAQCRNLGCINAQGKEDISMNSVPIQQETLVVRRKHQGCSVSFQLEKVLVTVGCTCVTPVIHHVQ
Experimental details: IL-17A/F HEK-Blue Cell Assay
Format: cell-based
Stated conditions: HEK-Blue IL-17 reporter cells, IL-17A/F stimulation, 20 hours, SEAP readout; read-out: IL17AF HEK Blue pIC50 (converted)
Protocol: The HEK-Blue IL-17 reporter cell line (Fisher #NC1408637) was used for cell-based IL-17A/F inhibition assays. Cells were grown and prepared for assays according to the manufacturer's instructions. […] Media from the cells is then added to a development reagent (Quanti-Blue Substrate, Fisher #NC9711613), and read at A630. […]
Readout: IC50

{"Compound": "CO[C@@H](C)C(=O)N[C@@H](C(=O)N1CCN(C)[C@H](C)C1)[C@@H](C)c1ccc(NC(=O)[C@@H](NC(=O)C2(F)CC2)C(C2CC2)C2CC2)c(F)c1 [Compound 273]", "IC50": "100 to 10000 nM"}
{"Compound": "CCn1nccc1C(=O)N[C@H](C(=O)Nc1ccc([C@H](C)[C@@H](NC(=O)[C@H](C)OC)C(=O)N2CCN(C)C(CF)C2)cc1F)C(C1CC1)C1CC1 (single isomer, unassigned) [Compound 299]", "IC50": "10 to 100 nM"}
{"Compound": "CCC(=O)N[C@@H](C(=O)N1CCC[C@H](N)C1)[C@@H](C)c1ccc(NC(=O)[C@@H](NC(=O)c2ccnn2CC)C(C2CC2)C2CC2)c(F)c1 [Compound 267]", "IC50": "100 to 10000 nM"}

Report IC50 for C[C@@H]1CN(C(=O)[C@H](NC(=O)N(C)C2CC2)[C@@H](C)c2ccc(NC(=O)[C@@H](NC(=O)C3(F)CC3)C(C3CC3)C3CC3)c(F)c2)CCN1C [Compound 271] please.
100 to 10000 nM

// same read-out, input: CCn1nccc1C(=O)N[C@H](C(=O)Nc1ccc([C@H](C)[C@@H](NC(=O)C(C)OCCOC)C(=O)N2CCN(C)[C@H](C)C2)cc1F)C(C1CC1)C1CC1 (single isomer, unassigned) [Compound 311]
100 to 10000 nM

// same read-out, input: CCOC(C)C(=O)N[C@@H](C(=O)N1CCN(C)CC1)[C@@H](C)c1ccc(NC(=O)[C@@H](NC(=O)c2ccnn2CC)C(C2CC2)C2CC2)c(F)c1 (single isomer, unassigned) [Compound 329]
100 to 10000 nM

// same read-out, input: CCC(OC)C(=O)N[C@@H](C(=O)N1CCN(C)[C@H](C)C1)[C@@H](C)c1ccc(NC(=O)[C@@H](NC(=O)C2(F)CC2)C(C2CC2)C2CC2)c(F)c1 (single isomer, unassigned) [Compound 336]
100 to 10000 nM
